target: Insulin-degrading enzyme (Homo sapiens); assay: inhibitors of IDE decapeptide proteolysis, dose response, counter-screen for IDE exo-site inhibitor project, biochemical, kinetic mode (AID 1259348); conditions: purified human IDE, fluorogenic decapeptide proteolysis, measured here: primary FP probe displacement screen, stronger effect = lower value;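 note: purified IDE bound to fluorescein-labelled 6b probe FL-6b at the exo-site; test concentration not given here; probe displacement lowers polarization so hits show a drop in FP signal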
Threshold check on z-score: strictly below -10 is Y; on or above -10 is N.

# molecule, assigned-category
measured = [
    ("Cc1cccc(-c2ccc([C@@H]3[C@@H](CO)N4CCCCN(S(=O)(=O)c5cn(C)cn5)C[C@@H]34)cc2)c1", "Y"),
    ("Cc1cccc(-c2ccc([C@@H]3[C@H]4CN(C(=O)c5cccnc5)CC(=O)N4[C@H]3CO)cc2)c1", "Y"),
    ("O=C(NC1CCCC1)N1CCCCN2[C@H](C1)[C@H](c1ccc(/C=C/c3ccccc3)cc1)[C@@H]2CO", "Y"),
    ("O=C(c1ccncc1)N1C[C@@H]2N[C@H](C1)C2c1ccc(/C=C/c2ccccc2)cc1 (stereo partly specified)", "Y"),
    ("Cc1ccccc1-c1ccc([C@H]2[C@@H](CO)N3CCCCN(S(C)(=O)=O)C[C@@H]23)cc1", "N"),
    ("Cc1ccccc1-c1ccc([C@H]2[C@@H](CO)N3CCCCN(C(=O)CN4CCOCC4)C[C@@H]23)cc1", "N"),
    ("Cc1ccccc1-c1ccc([C@H]2[C@@H](CO)N3CCCCN(S(=O)(=O)c4cn(C)cn4)C[C@H]23)cc1", "Y"),
    ("COc1ccccc1-c1ccc([C@@H]2[C@@H](C#N)N(C(=O)CN(C)C)[C@H]2CO)cc1", "Y"),
    ("CO[C@H]1CN(C)C(=O)c2cc(NC(=O)c3ccc(Oc4ccccc4)cc3)ccc2OC[C@@H](C)NC[C@@H]1C", "Y"),
    ("Cc1ccccc1-c1ccc(C2[C@@H]3CN(Cc4cocn4)C[C@H]2N3)cc1 (stereo partly specified)", "N"),
    ("Cc1ccccc1-c1ccc([C@H]2[C@H](CO)N3C(=O)CN(C(=O)c4ccc(F)cc4)C[C@@H]23)cc1", "Y"),
]
